Where do these numbers come from? They come from patent US7045528B2.

Give measured IC50 for each item. Keep answers brief.
measured on: PDGFRβ (Homo sapiens)
Construct: expressed in transfected cells; host or cells: porcine aorta endothelial (PAE)-PDGFRβ cells
assay protocol: PAE-PDGFRβ phosphorylation in PAE-PDGFRB cells assay
Format: cell-based
experimental context: PAE cells overexpressing human PDGFRβ, PDGF-BB stimulated; read-out: PAE PDGFR autophos IC50 (nM) AVG
Numbers only, in nM.

Consider the reported IC50 for these compounds:
molecule_smiles=Cc1sc2cc(Oc3ccnc4cc(-c5nc(CO)cs5)sc34)ccc2c1C(=O)NCC1CC1 measured_on="PDGFRβ (Homo sapiens)" value_type=IC50 value_reported=335
molecule_smiles=CO[C@@H]1CCN(C(=O)c2cc3nccc(Oc4ccc5c(C(=O)NCC6CC6)c(C)oc5c4)c3s2)C1 measured_on="PDGFRβ (Homo sapiens)" value_type=IC50 value_reported=16.5

Please report IC50 for every entry that follows.
1. CNC(=O)c1c(C)n(C)c2cc(Oc3ccnc4cc(C(=O)N5CC[C@@H](N(C)C)C5)sc34)ccc12
2. CNC(=O)c1c(C)n(C)c2cc(Oc3ccnc4cc(-c5nc(CO)cs5)sc34)ccc12
3. CCc1oc2cc(Oc3ccnc4cc(C(=O)N5CC[C@@H](O)C5)sc34)ccc2c1C(=O)NC

Out:
1. 205
2. 13
3. 235

I would be grateful if you could provide IC50 for each of the following entries.
1. CO[C@@H]1CCN(C(=O)c2cc3nccc(Oc4ccc5c(C(=O)NCC(C)C)c(C)oc5c4)c3s2)C1
2. Cc1c(C(=O)NC2CC2)c2ccc(Oc3ccnc4cc(-c5nccn5C)sc34)cc2n1C
3. Cc1c(C(=O)NCC2CC2)c2ccc(Oc3ccnc4cc(-c5nccn5C)sc34)cc2n1C

Out:
17.8
43
31

====

measured on: PDGFRβ (Homo sapiens, UniProt P09619)
Construct: expressed in transfected cells; host or cells: porcine aorta endothelial (PAE)-PDGFRβ cells
Sequence (P09619 33-1106): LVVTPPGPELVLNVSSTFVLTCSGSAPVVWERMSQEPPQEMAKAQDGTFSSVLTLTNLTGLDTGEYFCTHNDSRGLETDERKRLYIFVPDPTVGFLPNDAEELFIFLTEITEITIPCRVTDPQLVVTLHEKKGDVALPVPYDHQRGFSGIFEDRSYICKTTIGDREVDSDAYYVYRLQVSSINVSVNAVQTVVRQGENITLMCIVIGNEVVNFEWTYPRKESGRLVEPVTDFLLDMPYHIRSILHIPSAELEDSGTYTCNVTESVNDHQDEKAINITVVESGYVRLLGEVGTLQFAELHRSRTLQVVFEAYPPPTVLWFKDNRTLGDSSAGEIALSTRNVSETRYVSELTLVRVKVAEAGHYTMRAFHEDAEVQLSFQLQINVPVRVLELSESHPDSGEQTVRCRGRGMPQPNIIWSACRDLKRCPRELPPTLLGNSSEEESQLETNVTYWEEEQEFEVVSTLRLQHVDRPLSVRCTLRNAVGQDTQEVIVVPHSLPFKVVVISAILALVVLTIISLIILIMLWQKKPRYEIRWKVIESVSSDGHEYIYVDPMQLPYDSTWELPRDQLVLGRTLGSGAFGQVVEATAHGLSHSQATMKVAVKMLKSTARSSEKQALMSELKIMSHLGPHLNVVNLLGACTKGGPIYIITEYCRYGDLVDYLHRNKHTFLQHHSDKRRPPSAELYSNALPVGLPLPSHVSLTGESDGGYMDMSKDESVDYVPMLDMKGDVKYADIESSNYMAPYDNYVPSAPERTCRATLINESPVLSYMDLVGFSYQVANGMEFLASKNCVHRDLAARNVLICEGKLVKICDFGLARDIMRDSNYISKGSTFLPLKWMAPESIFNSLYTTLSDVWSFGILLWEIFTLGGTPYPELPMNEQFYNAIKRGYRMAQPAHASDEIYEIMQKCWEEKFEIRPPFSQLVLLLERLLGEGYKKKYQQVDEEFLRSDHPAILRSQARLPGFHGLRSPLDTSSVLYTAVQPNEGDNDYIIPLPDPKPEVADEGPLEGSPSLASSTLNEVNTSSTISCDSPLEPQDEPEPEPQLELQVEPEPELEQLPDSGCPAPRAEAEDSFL
assay protocol: PAE-PDGFRβ phosphorylation in PAE-PDGFRB cells assay
Type: cell-based
experimental context: library amides from Example 101 (R101), crude mixtures in DMSO; read-out: PAE PDGFR autophos IC50
value type: pIC50
Give bare numbers, as −log10 of the molar value.

compound="Cc1oc2cc(Oc3ccnc4ccsc34)ccc2c1C(=O)NCCN1CCOCC1 [drawing 310]" measured_on="PDGFRβ (Homo sapiens, UniProt P09619)" value_type=pIC50 value_reported=7.30

API: the following record is the query input.
In: // lookup pIC50 | system=PDGFRβ (Homo sapiens, UniProt P09619) | key= COC(=O)[C@H](Cc1c[nH]cn1)NC(=O)c1c(C)oc2cc(Oc3ccnc4ccsc34)ccc12
Out: 7.31

====

Exercise: for every item that follows, state its recorded IC50.
Test system: Huvec
assay protocol: bFGF Huvec proliferation
Type: cell-based, human
experimental context: Homo sapiens, HUVEC
One number for each entry, in nM.

Each of the following entries comes with a recorded value; kindly state IC50 for each.
1. Cc1oc2cc(Oc3ccnc4cc(-c5nccn5C)sc34)ccc2c1C(=O)NCC(C)C [Example 84]
2. Cc1c(C(=O)NC2CC2)c2ccc(Oc3ccnc4cc(C(=O)N5CCC[C@H]5CO)sc34)cc2n1C [Example 54]

Out:
1: 429; 2: 10000

Would you be so kind as to report IC50 for each listed record?
1. CCc1sc2cc(Oc3ccnc4cc(C(=O)N5CCC[C@H]5COC)sc34)ccc2c1C(=O)NC [Example 137]
2. Cc1sc2cc(Oc3ccnc4cc(-c5nccn5C)sc34)ccc2c1C(=O)NC1CC1 [Example 117]

Out:
1: 294; 2: 86

====

measured on: unphosphorylated VEGF-R2Δ50 (FLVK) (Homo sapiens, UniProt P35968, DEL940-989/E990V)
Construct: VEGF-R2Δ50 contains residues 806–939 and 990–1171; made in house; host or cells: baculovirus/insect cell system
Sequence (P35968 with tags, fused parts or gaps DEL940-989/E990V limits assumed): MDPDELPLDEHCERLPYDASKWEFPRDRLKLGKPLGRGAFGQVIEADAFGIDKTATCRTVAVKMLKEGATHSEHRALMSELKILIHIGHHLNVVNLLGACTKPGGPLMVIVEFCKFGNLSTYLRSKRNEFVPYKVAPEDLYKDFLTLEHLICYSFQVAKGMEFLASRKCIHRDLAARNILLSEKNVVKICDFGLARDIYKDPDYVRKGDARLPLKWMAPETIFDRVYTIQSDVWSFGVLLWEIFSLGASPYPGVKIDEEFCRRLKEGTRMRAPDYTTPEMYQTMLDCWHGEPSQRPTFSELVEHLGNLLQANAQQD
assay protocol: VEGF-R2 coupled spectrophotometric assay, unphosphorylated VEGF-R2Δ50 (FLVK)
Assay type: biochemical
experimental context: unphosphorylated VEGF-R2Δ50
Flag rule - Ki less than 0.7 nM flags y; the remaining entries get n.

Example cases with answers are listed next.
molecule_smiles=Cc1oc2cc(Oc3ccnc4cc(-c5nccn5C)sc34)ccc2c1C(=O)NC(C)C assigned_class=y
molecule_smiles=Cc1oc2cc(Oc3ccnc4cc(C(=O)N5CC[C@@H](O)C5)sc34)ccc2c1C(=O)NCC(C)C assigned_class=y

Then this molecule:
In: Consider the molecule CNC(=O)c1c(C)n(C)c2cc(Oc3ccnc4cc(C(=O)N5C[C@@H](O)[C@@H](O)C5)sc34)ccc12 . Is its Ki strictly less than 0.7 nM?
Out: n

====

measured on: PDGFRβ (Homo sapiens, UniProt P09619)
Construct: expressed in transfected cells; host or cells: porcine aorta endothelial (PAE)-PDGFRβ cells
assay protocol: PAE-PDGFRβ phosphorylation in PAE-PDGFRB cells assay
Format: cell-based
experimental context: PAE cells overexpressing human PDGFRβ, PDGF-BB stimulated; read-out: PAE PDGFR autophos IC50 (nM) AVG
Procedure: PAE-PDGFRβ Phosphorylation in PAE-PDGFRB Cells Assay This assay determines the ability of a test compound to inhibit the autophosphorylation of PDGFRβ in porcine aorta endothelial (PAE)-PDGFRβ cells. PAE cells that overexpress human PDGFRβ were used in this assay. […] Phosphorylation status was assessed by spectrophotometer reading at 450 nm. IC50 values were calculated by curve fitting using a four-parameter analysis.
Would you mind telling me the reported IC50 of each entry?
One number for each entry, in nM.

compound=CCCNC(=O)c1c(C)n(C)c2cc(Oc3ccnc4cc(C(=O)N5CC[C@@H](O)C5)sc34)ccc12 value_type=IC50 result_units=nM value_reported=115
compound=COC[C@@H]1CCCN1C(=O)c1cc2nccc(Oc3ccc4c(C(=O)NCCCO)c(C)sc4c3)c2s1 value_type=IC50 result_units=nM value_reported=351
compound=CNC(=O)c1c(C)oc2cc(Oc3ccnc4cc(-c5nc(CO)cs5)sc34)ccc12 value_type=IC50 result_units=nM value_reported=7
compound=CO[C@@H]1CCN(C(=O)c2cc3nccc(Oc4ccc5c(C(=O)NCCCO)c(C)sc5c4)c3s2)C1 value_type=IC50 result_units=nM value_reported=376
compound=Cc1oc2cc(Oc3ccnc4cc(-c5nccn5C)sc34)ccc2c1C(=O)NCC(C)C value_type=IC50 result_units=nM value_reported=12.4

Kindly give each listed record's IC50.
1. CNC(=O)c1c(Cl)n(C)c2cc(Oc3ccnc4cc(-c5nc(C(C)(C)O)cs5)sc34)ccc12
2. CNC(=O)c1c(C)sc2cc(Oc3ccnc4cc(C(=O)N5CC[C@@H](OC)C5)sc34)ccc12

Out:
[16.6, 284]

Please state, for each entry, its recorded IC50.
1. CCc1c(C(=O)NC)c2ccc(Oc3ccnc4cc(-c5nccn5C)sc34)cc2n1C
2. CNC(=O)c1c(C)sc2cc(Oc3ccnc4cc(-c5nc(CO)cs5)sc34)ccc12

Out:
[313, 148]

Go through the list and state IC50 for each entry.
1. CNC(=O)c1c(C)n(C)c2cc(Oc3ccnc4cc(C(=O)N5CCC(CNC(=O)OC(C)(C)C)C5)sc34)ccc12 (stereo not shown)
2. CNC(=O)c1c(C)oc2cc(Oc3ccnc4ccsc34)ccc12

Out:
1. 21.3
2. 563

List reported IC50 for each of these compounds:
1. Cc1oc2cc(Oc3ccnc4cc(-c5nccn5C)sc34)ccc2c1C(=O)NC(C)C
2. Cc1sc2cc(Oc3ccnc4cc(-c5nc(CO)cs5)sc34)ccc2c1C(=O)NC1CC1
3. Cc1c(C(=O)NC2CC2)c2ccc(Oc3ccnc4cc(C(=O)N5CC[C@@H](O)C5)sc34)cc2n1C
4. CO[C@@H]1CCN(C(=O)c2cc3nccc(Oc4ccc5c(C(=O)NCCO)c(C)sc5c4)c3s2)C1

Out:
1: 28.8; 2: 168; 3: 229; 4: 229

For each of the items listed, what is its IC50?
1. CNC(=O)c1c(C)n(C)c2cc(Oc3ccnc4cc(C(=O)N(C)CCCN(C)C)sc34)ccc12
2. CO[C@@H]1CCN(C(=O)c2cc3nccc(Oc4ccc5c(C(=O)NC6CC6)c(C)sc5c4)c3s2)C1
3. CCc1sc2cc(Oc3ccnc4cc(C(=O)N5CC[C@@H](OC)C5)sc34)ccc2c1C(=O)NC

Out:
1: 29.2; 2: 104; 3: 212

The following compounds each have a reported value; give each one's IC50.
1. CNC(=O)c1c(C)n(C)c2cc(Oc3ccnc4cc(-c5nc(C(C)(C)O)cs5)sc34)ccc12
2. Cc1sc2cc(Oc3ccnc4cc(C(=O)N5CC[C@@H](O)C5)sc34)ccc2c1C(=O)NC1CC1

Out:
1: 24.2; 2: 220

Look up IC50 for the entries below, preserving their order.
1. Cc1sc2cc(Oc3ccnc4cc(C(=O)N5CC[C@@H](O)C5)sc34)ccc2c1C(=O)NCC1CC1
2. CNC(=O)c1c(C)n(C)c2cc(Oc3ccnc4cc(C(=O)N(C)C)sc34)ccc12

Out:
[336, 63]

For each listed entry, give its IC50.
1. CCCNC(=O)c1c(C)oc2cc(Oc3ccnc4cc(C(=O)N5CC[C@@H](OC)C5)sc34)ccc12
2. Cc1c(C(=O)NC2CC2)c2ccc(Oc3ccnc4cc(C(=O)N5CCC[C@H]5CO)sc34)cc2n1C
3. CNC(=O)c1c(C)sc2cc(Oc3ccnc4cc(-c5nccn5C)sc34)ccc12
4. CNC(=O)c1c(C)n(C)c2cc(Oc3ccnc4cc(-c5nccn5C)sc34)ccc12

Out:
1: 4.4; 2: 133; 3: 164; 4: 20
